Items are presented alongside their recorded pEC50.
Tested on: CEM cells HIV-1 protection, formazan growth assay
Assay: NCI AIDS Antiviral Assay
pEC50: −log10 of the molar value. Where a SMILES comes first, the peptide text is derived from it. [ ]: non-standard residue; d: D form. The star is where a group is joined. Phe(4-NO2) = N[CH](Cc1ccc([N+](=O)[O-])cc1)C(=O)O; Boc = CC(C)(C)OC(=O)*; OBn = c1ccc(CO*)cc1

COc1ccc(/C(C#N)=C/c2ccc(N(C)CCC#N)cc2)cc1	< 3.70
Cc1nnc2n1-c1ccccc1C(=S)N1CSCC21 (stereo unspecified)	< 3.70
O=C(CCc1n[nH]c(=S)o1)Nc1ccccc1C(F)(F)F	< 3.53

Exercise: What pEC50 value was documented for this compound, COC(=O)CCC(NC(=O)OC(C)(C)C)C(=O)NC(Cc1ccc([N+](=O)[O-])cc1)C(=O)NCC(=O)OCc1ccccc1 (stereo unspecified) (Boc-Glu(OMe)-[Phe(4-NO2)]-Gly-OBn; configuration not given here) ?
Key: < 3.70

Exercise: # get_value(readout='pEC50', item= Cc1nc2c(N)n[nH]c(=O)n2n1 )
Key: < 3.70

Exercise: Form field: reported pEC50 of CCOc1ncn(-c2ccc(NC(=S)Nc3ncccn3)cc2)n1
Key: < 3.70

Exercise: Recorded pEC50 of CC(=O)Oc1c2c(c(OC(C)=O)c3c1n(C(C)=O)c1ccccc1n3C(C)=O)n(C(C)=O)c1ccccc1n2C(C)=O , please.
Key: < 4.48

Exercise: Quick one: pEC50 for COc1cccc(/C=N/[N-]C(N)=O)c1[O-].[Ni+2].[OH3+] ?
Key: < 3.78

Exercise: Entry under review: O=[N+]([O-])c1ccc(S(=O)(=O)N/N=C/C=C/c2ccccc2)cc1 . Reported pEC50?
Key: < 3.82

Exercise: Query (compound): COc1ccc(C(c2cc3c(cc2O)OCO3)N2CCOCC2)c(OC)c1 (stereo unspecified) ; field requested: pEC50
Key: < 4.02

Exercise: What does the data say about its pEC50? Entry: NC(Cc1ccc(OCc2ccccc2)cn1)C(=O)O (stereo unspecified)
Key: < 3.70

Exercise: Need pEC50, item COc1cc(N=Nc2ccc3c(c2)Cc2ccccc2-3)c(OC)cc1N
Key: < 3.70

Exercise: May I ask what pEC50 has been recorded for S=c1[nH]c2ccccc2c(=S)n1CN1CCCCC1 ?
Key: < 3.70

Exercise: Given CN(C)C(=O)C1(c2ccc(Cl)cc2)CCN(CCCC(=O)c2ccc(F)cc2)CC1 , state its recorded pEC50.
Key: < 4.10

Exercise: Please give the measured pEC50 for this compound: CC(C)(C)OC[C@H]1N([C@H](COCc2ccccc2)c2ccccc2)C(=O)C1(C)C
Key: < 3.77

Exercise: Any idea what its pEC50 is? The compound is CCOC(=O)n1c2ccccc2c(=O)n1CCO
Key: < 3.70

Exercise: Which measured pEC50 value corresponds to Cc1ccc(S(=O)(=O)N/N=C2\CC(C)OC3=C2CCCCCC3)cc1 (stereo unspecified) ?
Key: < 3.70

Exercise: Any idea what its pEC50 is? The compound is Cn1cc([N+](=O)[O-])cc1C(=O)Nc1cc(C(=O)Nc2ccc(S(=O)(=O)O)c3cc(S(=O)(=O)O)ccc23)n(C)c1
Key: < 3.40

Exercise: Which pEC50 value is on record for CCOC(CN(C)C(=O)Nc1cccc2ccccc12)OCC ?
Key: < 3.70

Exercise: Look at this compound and give its reported pEC50. O=C1N=NC(Cl)c2ccccc21 (stereo unspecified)
Key: < 4.54

Exercise: Name the reported pEC50 value associated with the compound CC(C)(C)[Si](C)(C)OCC1OC(n2cc(I)c(N)nc2=O)C(O[Si](C)(C)C(C)(C)C)C1O[Si](C)(C)C(C)(C)C (stereo unspecified)
Key: < 3.70

Exercise: Request the reported pEC50 associated with CCOC(=O)/C(=C\c1cccc(Br)c1)P(=O)(OCC)OCC
Key: < 4.04

Exercise: Look up pEC50 for this compound: N[C@@H](CSS[C@H](C(=O)O)[C@@H](SSC[C@H](N)C(=O)O)C(=O)O)C(=O)O
Key: < 3.70

Exercise: Which pEC50 reading was recorded for the compound Cc1c(C(=N)C(C#N)C#N)c(=N)oc2c1ccc1ccccc12 ?
Key: < 3.70
